# Measured On: RIPK1 (recombinant GST-RIPK1 kinase domain, residues 1-327) (Homo sapiens (Human), UniProt Q13546)
# Sequence (Q13546 1-327): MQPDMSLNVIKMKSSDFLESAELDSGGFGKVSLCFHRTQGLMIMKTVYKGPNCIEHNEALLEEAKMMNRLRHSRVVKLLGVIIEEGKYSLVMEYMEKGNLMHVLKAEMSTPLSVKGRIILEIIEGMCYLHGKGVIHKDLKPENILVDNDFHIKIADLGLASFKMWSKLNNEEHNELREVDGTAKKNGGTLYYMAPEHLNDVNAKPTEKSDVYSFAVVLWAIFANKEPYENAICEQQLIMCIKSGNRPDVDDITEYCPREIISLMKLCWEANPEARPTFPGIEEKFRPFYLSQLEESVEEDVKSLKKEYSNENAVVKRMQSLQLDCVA
# Assay Comment: RIPK1-ADP-Glo Enzymatic Assay
# Type: biochemical
# Conditions: ADP-Glo; 25 nM GST-RIPK1, 300 μM ATP; assay lower limit ~25 nM; read-out: RIPK1 V0 Ec50
Reported Property: EC50 (nM)

>>> measured_value("CCOc1cccc(C(=O)N2CCC3(CC2)O[C@@H]2CC[C@@H](c4cc(F)cc(F)c4)N2C3=O)n1")
31.8
>>> measured_value("O=C1N2[C@@H](CC[C@H]2c2cc(F)cc(F)c2)OC12CCN(S(=O)(=O)c1ccccc1)CC2")
728
>>> measured_value("CC1CN(c2cc(C#N)ncn2)CCC12O[C@@H]1CC[C@@H](c3ccccc3)N1C2=O (some centres unmarked) [Example 4.234]")
56.5
>>> measured_value("O=C(c1ccccc1)N1CCC2(CC1)O[C@@H]1CC[C@@H](c3cnc4c(c3)CCC4)N1C2=O")
342
>>> measured_value("O=C(c1ccnc2ncnn12)N1CCC2(CC1)O[C@@H]1CC[C@@H](c3cc(F)cc(F)c3)N1C2=O")
182
>>> measured_value("Cc1nnc(N2CC3(C2)O[C@@H]2CC[C@@H](c4ccccc4F)N2C3=O)o1")
566
>>> measured_value("O=C(c1ccccc1)N1CCC2(CC1)SC1CC[C@H](c3cc(F)cc(F)c3)N1C2=O (some centres unmarked)")
501
>>> measured_value("O=C1N2[C@@H](CC[C@H]2c2ccccc2F)OC12CN(c1ccnc(Cl)c1)C2")
37.8
>>> measured_value("CC(F)(F)c1ccnc(N2CCC3(CC2)O[C@@H]2CC[C@@H](c4ccccc4)N2C3=O)c1")
256
>>> measured_value("O=C(c1cc(C2CC2)on1)N1CCC2(CC1)O[C@@H]1CC[C@@H](c3cc(F)cc(F)c3)N1C2=O")
82.4
>>> measured_value("O=C1N2[C@@H](CC[C@H]2c2cc(F)cc(F)c2)OC12CCN(S(=O)(=O)c1cccc(F)c1)CC2")
672
>>> measured_value("CC1C[C@@]2(CCN1C(=O)c1ccccc1)O[C@@H]1CC[C@@H](c3cccc(F)c3)N1C2=O (some centres unmarked) [Example 6.161]")
275
>>> measured_value("COc1cc(N2CCC3(CC2)O[C@@H]2CC[C@@H](c4ccccc4)N2C3=O)ncn1")
22.3
>>> measured_value("O=C(c1ccon1)N1CCC2(CC1)O[C@@H]1CC[C@@H](c3cc(F)cc(F)c3)N1C2=O")
31
>>> measured_value("O=C1N2[C@@H](CC[C@H]2c2ccccc2)OC12CCN(c1cc(C(F)(F)F)ncn1)CC2")
50
>>> measured_value("O=C(c1coc(Cl)n1)N1CCC2(CC1)O[C@@H]1CC[C@@H](c3cccc(F)c3)N1C2=O")
60.8
>>> measured_value("Cc1cc(C)cc(C(=O)N2CCC3(CC2)O[C@@H]2CC[C@@H](c4cccc(F)c4)N2C3=O)c1")
71.7
>>> measured_value("O=C(c1ccccc1)N1CCC2(CC1)O[C@@H]1CC[C@@H](c3ccc(F)cc3)N1C2=O")
36.8
>>> measured_value("O=C(NC1(C(F)(F)F)CC1)c1nc(N2CCC3(CC2)O[C@@H]2CC[C@@H](c4cc(F)cc(F)c4)N2C3=O)ncc1F")
147

###

# Measured On: RIPK1 (recombinant GST-RIPK1 kinase domain, residues 1-327) (Homo sapiens (Human), UniProt Q13546)
# Assay Comment: RIPK1-ADP-Glo Enzymatic Assay
# Assay type: biochemical
# Conditions: ADP-Glo; 25 nM GST-RIPK1, 300 μM ATP; assay lower limit ~25 nM; read-out: RIPK1 V0 Ec50
Reported Property: EC50 (nM)

>>> measured_value("O=C1N2[C@@H](CC[C@H]2c2ccccc2)OC12CCN(c1ccnc(C3CC3)n1)CC2 [Example 11.15]")
81.7
>>> measured_value("N#Cc1ccccc1C(=O)N1CCC2(CC1)O[C@@H]1CC[C@@H](c3cccc(F)c3)N1C2=O [Example 6.129]")
188

###

# Measured On: RIPK1 (recombinant GST-RIPK1 kinase domain, residues 1-327) (Homo sapiens (Human), UniProt Q13546)
# Assay Comment: RIPK1-ADP-Glo Enzymatic Assay
# Format: biochemical
# Conditions: ADP-Glo; 25 nM GST-RIPK1, 300 μM ATP; assay lower limit ~25 nM; read-out: RIPK1 V0 Ec50
pEC50: −log10 of the molar value.
Reported Property: pEC50

>>> measured_value("O=C1N2[C@@H](CC[C@H]2c2ccccc2)OC12CCN(c1cc(OC3CCC3)ccn1)CC2 [Example 11.20]")
7.57
>>> measured_value("CC1CN(c2cccc3ncnn23)CCC12O[C@@H]1CC[C@@H](c3ccccc3)N1C2=O (stereo partly shown) [Example 4.243]")
7.58
>>> measured_value("N#Cc1cc(N2CCC3(CC2)SC2CCC(c4cc(F)cc(F)c4)N2C3=O)ncn1 (stereo not shown) [Example 4.111]")
7.42
>>> measured_value("O=C(c1ncnc2c1CCC2)N1CCC2(CC1)O[C@@H]1CC[C@@H](c3cc(F)cc(F)c3)N1C2=O [Example 6.15]")
6.26

###

Items are presented alongside their recorded EC50.
# Measured On: RIPK1 (recombinant GST-RIPK1 kinase domain, residues 1-327) (Homo sapiens (Human), UniProt Q13546)
# Assay Comment: RIPK1-ADP-Glo Enzymatic Assay
# Type: biochemical
# Conditions: ADP-Glo; 25 nM GST-RIPK1, 300 μM ATP; assay lower limit ~25 nM; read-out: RIPK1 V0 Ec50
Reported Property: EC50

>>> measured_value("O=C(c1sccc1Cl)N1CCC2(CC1)O[C@@H]1CC[C@@H](c3cc(F)cc(F)c3)N1C2=O")
"< 25 nM"
>>> measured_value("N#Cc1ccc(F)c([C@@H]2CC[C@H]3OC4(CCN(c5ccnc6c(F)cnn56)CC4)C(=O)N32)c1")
"< 25 nM"
>>> measured_value("CCOC(=O)c1cc(N2CCC3(CC2)O[C@@H]2CC[C@@H](c4ccccc4)N2C3=O)ncn1")
"52.8 nM"
>>> measured_value("O=C1N2[C@@H](CC[C@H]2c2ccccc2)OC12CCN(c1nnc(C(F)(F)F)s1)CC2")
"757 nM"
>>> measured_value("N#Cc1cccc(N2CCC3(CC2)O[C@@H]2CC[C@@H](c4ccccc4)N2C3=O)n1")
"< 25 nM"
>>> measured_value("O=C1N2[C@@H](CC[C@H]2c2ccccc2)OC12CN(c1ccc(C3CCC3)c3ccnn13)C2")
"< 25 nM"
>>> measured_value("O=C(c1cccc(C2CC2)c1)N1CCC2(CC1)O[C@@H]1CC[C@@H](c3ccccc3)N1C2=O")
"< 25 nM"

###

# Measured On: RIPK1 (recombinant GST-RIPK1 kinase domain, residues 1-327) (Homo sapiens (Human))
# Assay Comment: RIPK1-ADP-Glo Enzymatic Assay
# Assay type: biochemical
# Conditions: RIPK1 V0 Ec50, ADP-Glo; 25 nM GST-RIPK1, 300 μM ATP; assay lower limit ~25 nM
Reported Property: EC50

>>> measured_value("N#Cc1ccc(N2CCC3(CC2)O[C@@H]2CC[C@@H](c4cc(F)cc(F)c4)N2C3=O)cc1Cl [Example 4.20]")
"< 25 nM"

###

Items are presented alongside their recorded EC50.
# Measured On: RIPK1 (recombinant GST-RIPK1 kinase domain, residues 1-327) (Homo sapiens (Human), UniProt Q13546)
# Assay Comment: RIPK1-ADP-Glo Enzymatic Assay
# Type: biochemical
# Conditions: ADP-Glo; 25 nM GST-RIPK1, 300 μM ATP; assay lower limit ~25 nM; read-out: RIPK1 V0 Ec50
Reported Property: EC50 (nM)

>>> measured_value("O=C1N2[C@@H](CC[C@H]2c2ccccc2)OC12CCN(c1cc(F)c(O)cn1)CC2")
166
>>> measured_value("Cc1nccnc1C(=O)N1CCC2(CC1)O[C@@H]1CC[C@@H](c3cc(F)cc(F)c3)N1C2=O")
493
>>> measured_value("O=C1N2[C@@H](CC[C@H]2c2ccccc2F)OC12CN(S(=O)(=O)c1ccccc1)C2")
429

###

# Measured On: RIPK1 (recombinant GST-RIPK1 kinase domain, residues 1-327) (Homo sapiens (Human), UniProt Q13546)
# Assay Comment: RIPK1-ADP-Glo Enzymatic Assay
# Assay type: biochemical
# Conditions: ADP-Glo; 25 nM GST-RIPK1, 300 μM ATP; assay lower limit ~25 nM; read-out: RIPK1 V0 Ec50
pEC50: −log10 of the molar value. Structures can show the parent of a compound that is named as a salt.
Items are presented alongside their recorded pEC50.
Reported Property: pEC50

>>> measured_value("Nc1nnc(N2CCC3(CC2)O[C@@H]2CC[C@@H](c4ccccc4)N2C3=O)s1")
6.51
>>> measured_value("O=C1N2[C@@H](CC[C@H]2c2cc(F)cc(F)c2)OC12CCN(c1ncc(F)c3ncnn13)CC2 [Example 4.90, TFA salt]")
6.42
>>> measured_value("Cn1cccc1C(=O)N1CCC2(CC1)O[C@@H]1CC[C@@H](c3cc(F)cc(F)c3)N1C2=O")
7.37
>>> measured_value("O=C1N2[C@@H](CC[C@H]2c2ccccc2)OC12CCN(c1ncc(F)cc1C(F)F)CC2")
7.21
